Data origin, for the record: ChEMBL document CHEMBL3808284

# System: Enterococcus faecalis
# procedure summary: Antibacterial activity against Enterococcus faecalis ATCC 29212 at 50 uM after 24 hrs by broth microdilution method
# Type: functional
# measurement parameters: ATCC 29212, 24 h
reported property: inhibition at 50 µM (%)

INSERT INTO results (input_smiles, reported_property, output_unit, reading) VALUES
  ('COC(=O)[C@@H]1CCCN1C(=O)c1ccc(NC(=O)c2cc(Br)c(Br)[nH]2)cc1', 'inhibition at 50 µM', '%', -12),
  ('O=C(Nc1ccc(C(=O)N2CCC[C@@H]2C(=O)O)cc1)c1cc(Br)c(Br)[nH]1', 'inhibition at 50 µM', '%', 10),
  ('O=C(Nc1ccc(C(=O)N2CCC[C@H]2C(=O)O)cc1)c1cc(Br)c(Br)[nH]1', 'inhibition at 50 µM', '%', 14),
  ('O=C(O)C(=O)Nc1ccc(NC(=O)c2cc(Br)c(Br)[nH]2)cc1', 'inhibition at 50 µM', '%', 9),
  ('O=C(O)CC(=O)Nc1ccc(NC(=O)c2cc(Br)c(Br)[nH]2)cc1', 'inhibition at 50 µM', '%', -4),
  ('COC(=O)CC(=O)Nc1ccc(NC(=O)c2cc(Br)c(Br)[nH]2)cc1', 'inhibition at 50 µM', '%', -5),
  ('CC(=O)c1ccc(NC(=O)c2cc(Br)c(Br)[nH]2)cc1', 'inhibition at 50 µM', '%', 5),
  ('O=C(O)C(=O)Nc1ccc(NC(=O)c2cc3ccccc3[nH]2)cc1', 'inhibition at 50 µM', '%', 9),
  ('COC(=O)[C@H]1CCCN1C(=O)c1ccc(NC(=O)c2cc(Br)c(Br)[nH]2)cc1', 'inhibition at 50 µM', '%', -4);

====

// reported inhibition at 50 µM per item
# Tested on: Staphylococcus aureus
# procedure summary: Antibacterial activity against Staphylococcus aureus ATCC 25923 at 50 uM after 24 hrs by broth microdilution method
# Format: functional
# measurement parameters: ATCC 25923, 24 h
reported property: inhibition at 50 µM (%)

INSERT INTO assay_data (input_smiles, reported_property, reading) VALUES
  ('O=C(O)C(=O)Nc1ccc(NC(=O)c2cc(Br)c(Br)[nH]2)cc1', 'inhibition at 50 µM', 5),
  ('O=C(Nc1ccc(C(=O)N2CCC[C@@H]2C(=O)O)cc1)c1cc(Br)c(Br)[nH]1', 'inhibition at 50 µM', 5),
  ('COC(=O)[C@@H]1CCCN1C(=O)c1ccc(NC(=O)c2cc(Br)c(Br)[nH]2)cc1', 'inhibition at 50 µM', 0),
  ('O=C(O)C(=O)Nc1ccc(NC(=O)c2cc3ccccc3[nH]2)cc1', 'inhibition at 50 µM', -6),
  ('O=C(O)CC(=O)Nc1ccc(NC(=O)c2cc(Br)c(Br)[nH]2)cc1', 'inhibition at 50 µM', -7),
  ('CC(=O)c1ccc(NC(=O)c2cc(Br)c(Br)[nH]2)cc1', 'inhibition at 50 µM', -5),
  ('O=C(Nc1ccc(C(=O)N2CCC[C@H]2C(=O)O)cc1)c1cc(Br)c(Br)[nH]1', 'inhibition at 50 µM', 1),
  ('COC(=O)CC(=O)Nc1ccc(NC(=O)c2cc(Br)c(Br)[nH]2)cc1', 'inhibition at 50 µM', -14),
  ('COC(=O)[C@H]1CCCN1C(=O)c1ccc(NC(=O)c2cc(Br)c(Br)[nH]2)cc1', 'inhibition at 50 µM', -13);
